For each entry below, report its MT1 agonism, 100 nm value.
- Tested On: recombinant human MT1 receptor (Homo sapiens, UniProt P48039)
- Construct: expressed in transfected cells; host or cells: unnamed cell line co-expressing mitochondrial apoaequorin and the Galpha16 subunit
- Sequence (P48039 whole entry): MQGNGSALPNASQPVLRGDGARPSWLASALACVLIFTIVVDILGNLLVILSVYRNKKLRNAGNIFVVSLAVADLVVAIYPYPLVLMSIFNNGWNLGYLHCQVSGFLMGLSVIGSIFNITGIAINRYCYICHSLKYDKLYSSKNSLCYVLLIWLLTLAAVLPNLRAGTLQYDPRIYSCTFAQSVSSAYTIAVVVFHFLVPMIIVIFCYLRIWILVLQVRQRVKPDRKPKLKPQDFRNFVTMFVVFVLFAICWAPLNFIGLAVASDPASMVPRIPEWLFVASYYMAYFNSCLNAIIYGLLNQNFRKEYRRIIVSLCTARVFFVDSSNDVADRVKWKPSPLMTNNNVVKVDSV
- Assay Info: Agonist activity on MT1 receptors (aequorin luminescence, Gα16 co-expressing cell line)
- Format: cell-based
- Condition Summary: compound at 100 nm; percentage activity with respect to the reference agonist at its EC100
State just the number; it will be interpreted in %.

Check the records and state MT1 agonism, 100 nm for COc1ccc2c(c1)N(CCNC(=O)C(F)(F)F)CC2
94

Check the records and state MT1 agonism, 100 nm for COc1ccc2c(c1)N(C(C)CNC(C)=O)CC2 (stereo not shown)
89.8

Check the records and state MT1 agonism, 100 nm for COc1ccc2c(c1)N(CCNC(C)=O)CC2
92

Check the records and state MT1 agonism, 100 nm for CC(=O)NCCN1CCc2ccc3c(c21)CCO3 [reference compound]
76.6
